read-out: Tumor necrosis factor (Homo sapiens) (UniProt P01375); experiment: BSK_BT_xTNFa: BioMAP Diversity Plus: BT Assay for Tumor necrosis factor alpha (TNF-alpha) Biomarker Activity (AID 2284230); details: primary human B cells with PBMC
Sequence (P01375 whole entry, looked up): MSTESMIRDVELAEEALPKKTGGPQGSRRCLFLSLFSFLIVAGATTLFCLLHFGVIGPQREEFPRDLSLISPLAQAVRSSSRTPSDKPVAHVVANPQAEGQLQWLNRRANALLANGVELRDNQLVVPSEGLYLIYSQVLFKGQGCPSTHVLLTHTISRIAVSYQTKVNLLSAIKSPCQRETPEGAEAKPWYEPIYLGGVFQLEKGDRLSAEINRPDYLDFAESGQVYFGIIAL
Activity calls are given as the source filed them. The calls were made as follows: active = hit-call score of the fitted dose curve at least 0.9, where 1 is the maximum; inactive = score below 0.9.
The reply should be one of these categories: active, inactive

Before answering, review these 3 worked examples.
- CC(=O)O[C@]1(C(C)=O)CC[C@H]2[C@@H]3C[C@H](C)C4=CC(=O)CC[C@]4(C)[C@H]3CC[C@@]21C: inactive
- Cc1ccc(Nc2ccc(O)c3c2C(=O)c2ccccc2C3=O)cc1: inactive
- CN(CCOc1ccc(CC2SC(=O)NC2=O)cc1)c1ccccn1 (centres undefined): inactive

IN: // param item: Cc1ccc(O)c(C(C)(C)C)c1 ; yields the recorded call
OUT: inactive

IN: // param item: CC(C)Oc1ccccc1O ; yields the recorded call
OUT: inactive

IN: // param item: CCCCC(CC)COC(=O)/C=C\C(=O)OCC(CC)CCCC (centres undefined) ; yields the recorded call
OUT: inactive

IN: // param item: CC(C)c1ccc(C(C)C)cc1 ; yields the recorded call
OUT: inactive

* * *

experiment: ATG_EGR_CIS: Attagene CIS-FACTORIAL HepG2 Assay for human Early Growth Response 1 (EGR1) (AID 2282938); conditions: HepG2 Attagene CIS-FACTORIAL EGR reporter mRNA; actives raise or lower the signal
The source made the active and inactive calls. Rule for the calls: active = hit-call score of the fitted dose curve at least 0.9, where 1 is the maximum; inactive = score below 0.9.
The reply should be one of these categories: class 1 = active, class 0 = inactive

Before answering, review these 8 worked examples.
* CC(C)=CCC[C@](C)(O)[C@@H]1CC=C(C)CC1 | class 0
* CC1(C)[C@H]2CC[C@]1(C)[C@H](O)C2 | class 0
* O=C=NC1CCC(CC2CCC(N=C=O)CC2)CC1 (stereo not drawn) | class 0
* CC(c1cc2ccccc2s1)N(O)C(N)=O (stereo not drawn) | class 0
* O=C[C@H](O)[C@H](O)[C@H](O)CO | class 0
* c1ccc2c(c1)c1cccc3ccc4cccc2c4c31 | class 0
* O=c1cc(-c2ccccc2)oc2cc(O)cc(O)c12 | class 0
* C#C[C@]1(O)CC[C@H]2[C@@H]3CCC4=Cc5oncc5C[C@]4(C)[C@H]3CC[C@@]21C | class 1

IN: // param item: COc1ccc(Nc2ccccc2)c(C)c1 ; yields the recorded call
OUT: class 0

IN: // param item: CCC/C=C/C=O ; yields the recorded call
OUT: class 0

IN: // param item: C=CC(C)(CCC=C(C)C)OC=O (stereo not drawn) ; yields the recorded call
OUT: class 0

IN: // param item: CCC(O)CO (stereo not drawn) ; yields the recorded call
OUT: class 0

IN: // param item: C=C[C@@H](C)CCC=C(C)C ; yields the recorded call
OUT: class 0

IN: // param item: CC(C)(C)NC(N)=O ; yields the recorded call
OUT: class 0

IN: // param item: CCCCCC(CO)CCC (stereo not drawn) ; yields the recorded call
OUT: class 0

IN: // param item: OC1OC[C@@H](O)[C@H](O)[C@H]1O (stereo partly drawn) ; yields the recorded call
OUT: class 0

IN: // param item: BrC1CCC(Br)C(Br)CCC(Br)C(Br)CCC1Br (stereo not drawn) ; yields the recorded call
OUT: class 1

* * *

assay: BSK_3C_Vis: BioMAP Diversity Plus: 3C Assay for Morphology Visualization (AID 2283025); settings: primary human endothelial cells (HUVEC);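 also: fitted both ways so gain or loss versus DMSO counts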
Activity calls are given as the source filed them. The calls were made as follows: active = hit-call score of the fitted dose curve at least 0.9, where 1 is the maximum; inactive = score below 0.9.
The reply should be one of these categories: yes (1) (active), no (0) (inactive)

Before answering, review these 6 worked examples.
* CC1COc2ccccc2N1C(=O)C(Cl)Cl (configuration not stated) | yes (1)
* Cc1ccc(Nc2ccc(O)c3c2C(=O)c2ccccc2C3=O)cc1 | no (0)
* CC(C)(COC(=O)c1ccccc1)COC(=O)c1ccccc1 | yes (1)
* C=C[Si](OCC)(OCC)OCC | no (0)
* N#Cc1ccc(CC(=NNC(=O)Nc2ccc(OC(F)(F)F)cc2)c2cccc(C(F)(F)F)c2)cc1 | no (0)
* Cc1ccc2n[nH]nc2c1 | no (0)

Next:
IN: // param item: CC1CCC(C(C)CS)CC1S (configuration not stated) ; yields the recorded call
OUT: yes (1)

* * *

assay: ATG_MRE_CIS: Attagene CIS-FACTORIAL HepG2 Assay for human Metal Responsive Element (MRE) (AID 2282954); conditions: HepG2 MRE cis-reporter transcription, Attagene multiplex; actives raise or lower the signal
The source made the active and inactive calls. Rule for the calls: active = hit-call score of the fitted dose curve at least 0.9, where 1 is the maximum; inactive = score below 0.9.
The reply should be one of these categories: TRUE = active, FALSE = inactive

IN: // param item: C=C[C@@H](C)CCC=C(C)C ; yields the recorded call
OUT: FALSE

IN: // param item: CC(CCO)CCc1ccccc1 (stereo unspecified) ; yields the recorded call
OUT: FALSE

IN: // param item: CCCCCCOC(=O)CC ; yields the recorded call
OUT: FALSE

IN: // param item: CCN(CC)c1ccc(C(=C2C=CC(=[N+](CC)CC)C=C2)c2ccc(S(=O)(=O)O)cc2S(=O)(=O)[O-])cc1 ; yields the recorded call
OUT: FALSE

IN: // param item: O=C1CCCCCCCCCCCCCCO1 ; yields the recorded call
OUT: FALSE

IN: // param item: CC(C)(COC(=O)c1ccccc1)COC(=O)c1ccccc1 ; yields the recorded call
OUT: FALSE

IN: // param item: Clc1sc(Cl)c(Cl)c1Cl ; yields the recorded call
OUT: FALSE

IN: // param item: O=S(=O)(O)c1ccc(O)c2ncccc12 ; yields the recorded call
OUT: FALSE

* * *

assay: ATG_NFI_CIS: Attagene CIS-FACTORIAL HepG2 Assay for human Nuclear Factor I (NFI) (AID 2282989); conditions: HepG2 cis-regulatory reporter, NFI response element transcription; actives raise or lower the signal
Active and inactive are the calls of the source. The calls were made as follows: active = hit-call score of the fitted dose curve at least 0.9, where 1 is the maximum; inactive = score below 0.9.
The reply should be one of these categories: active, inactive

* COc1cc2ncnc(Nc3cccc(Cl)c3)c2cc1OC | inactive
* O=C1NC(=O)c2ccccc21 | inactive
* C=C(C)C(=O)OCCOC(=O)CC(C)=O | inactive
* O=C(COc1ccc(Cl)cc1)N1CCN(Cc2ccc3c(c2)OCO3)CC1 | inactive
* CCn1c2ccccc2c2cc(N)ccc21 | inactive

IN: // param item: CC(=O)C(C)=O ; yields the recorded call
OUT: inactive

IN: // param item: CC(=O)Nc1ccc(C)cc1C ; yields the recorded call
OUT: inactive

IN: // param item: CC[C@]12CCCN3CCc4c(n(c5ccccc45)[C@@](O)(C(=O)OC)C1)[C@@H]32 ; yields the recorded call
OUT: inactive

IN: // param item: N#Cc1nc(Cl)c(Cl)c(Cl)c1Cl ; yields the recorded call
OUT: active

IN: // param item: CC(C)(CO)[N+](=O)[O-] ; yields the recorded call
OUT: inactive

IN: // param item: CCCCCCCCCCCCOCCO ; yields the recorded call
OUT: active

* * *

target: Estrogen receptor (Homo sapiens) (UniProt P03372); assay: ATG_ERa_TRANS: Attagene TRANS-FACTORIAL HepG2 Assay for human Estrogen Receptor alpha (ERa) (AID 2282970); details: HepG2 Attagene TRANS ERa GAL4 reporter, mRNA
Sequence (P03372 whole entry, looked up, the tested form may be a part): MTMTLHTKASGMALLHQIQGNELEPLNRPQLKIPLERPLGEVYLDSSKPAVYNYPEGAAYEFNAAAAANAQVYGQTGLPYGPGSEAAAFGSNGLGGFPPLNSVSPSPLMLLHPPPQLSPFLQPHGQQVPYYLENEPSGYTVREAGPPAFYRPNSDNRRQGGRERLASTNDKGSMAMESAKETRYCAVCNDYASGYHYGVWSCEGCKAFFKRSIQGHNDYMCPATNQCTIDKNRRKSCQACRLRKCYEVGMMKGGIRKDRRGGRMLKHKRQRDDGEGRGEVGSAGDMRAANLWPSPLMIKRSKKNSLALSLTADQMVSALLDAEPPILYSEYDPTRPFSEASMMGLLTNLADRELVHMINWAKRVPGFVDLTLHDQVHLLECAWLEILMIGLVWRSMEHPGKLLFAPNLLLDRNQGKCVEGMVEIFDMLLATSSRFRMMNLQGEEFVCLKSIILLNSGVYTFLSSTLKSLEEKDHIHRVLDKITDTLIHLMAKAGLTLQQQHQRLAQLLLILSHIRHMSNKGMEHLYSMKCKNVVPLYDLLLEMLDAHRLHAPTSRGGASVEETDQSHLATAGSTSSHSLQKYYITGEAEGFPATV
Results filed as inconclusive are left out. Activity calls are given as the source filed them. How the source made its calls: active means hit-call score of the fitted dose curve at least 0.9, where 1 is the maximum; inconclusive means response in the unintended direction; inactive means score below 0.9.
The reply should be one of these categories: active, inactive

* CC(C)OP(=O)(CP(=O)(OC(C)C)OC(C)C)OC(C)C | inactive

Next:
IN: // param item: Cc1ccc2sc3cccc(C)c3c2c1 ; yields the recorded call
OUT: inactive

* * *

biological target: Hypoxia-inducible factor 1-alpha (Homo sapiens) (UniProt Q16665); assay: ATG_HIF1a_CIS: Attagene CIS-FACTORIAL HepG2 Assay for human Hypoxia Inducible Factor 1 (HIF1A) (AID 2282951); settings: HepG2 Attagene cis-factorial HIF1a reporter transcription; actives raise or lower the signal
Sequence (Q16665 whole entry, looked up): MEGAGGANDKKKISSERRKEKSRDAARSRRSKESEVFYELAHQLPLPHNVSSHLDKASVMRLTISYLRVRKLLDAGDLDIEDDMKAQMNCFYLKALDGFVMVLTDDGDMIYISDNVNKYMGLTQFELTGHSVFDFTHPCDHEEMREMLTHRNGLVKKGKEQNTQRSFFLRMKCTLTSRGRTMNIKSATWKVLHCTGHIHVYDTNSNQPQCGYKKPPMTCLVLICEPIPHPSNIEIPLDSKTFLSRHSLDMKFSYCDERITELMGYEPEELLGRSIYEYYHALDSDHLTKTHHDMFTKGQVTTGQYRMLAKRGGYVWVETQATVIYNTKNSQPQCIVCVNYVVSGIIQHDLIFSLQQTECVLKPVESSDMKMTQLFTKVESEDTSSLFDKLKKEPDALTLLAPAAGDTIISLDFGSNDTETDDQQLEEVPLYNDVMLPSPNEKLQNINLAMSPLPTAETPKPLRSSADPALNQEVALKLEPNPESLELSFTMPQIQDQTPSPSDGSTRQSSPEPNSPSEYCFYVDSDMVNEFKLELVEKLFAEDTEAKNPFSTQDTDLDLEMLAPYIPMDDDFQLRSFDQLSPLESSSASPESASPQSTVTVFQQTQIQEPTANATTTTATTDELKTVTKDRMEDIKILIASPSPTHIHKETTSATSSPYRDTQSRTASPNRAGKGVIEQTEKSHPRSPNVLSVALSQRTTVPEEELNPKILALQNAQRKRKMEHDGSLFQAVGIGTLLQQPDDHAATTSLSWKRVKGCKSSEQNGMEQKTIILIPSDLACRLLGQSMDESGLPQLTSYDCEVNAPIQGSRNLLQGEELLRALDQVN
Calls of active or inactive are those of the source. Rule for the calls: active = hit-call score of the fitted dose curve at least 0.9, where 1 is the maximum; inactive = score below 0.9.
The reply should be one of these categories: Y = active, N = inactive

• OCCCCCO = N
• CC(=O)O[C@]1(C(C)=O)CC[C@H]2[C@@H]3C[C@H](C)C4=CC(=O)CC[C@]4(C)[C@H]3CC[C@@]21C = N
• Cc1ccc(S)cc1 = N
• OC[C@H]1O[C@H](O[C@]2(CCl)O[C@H](CCl)[C@@H](O)[C@@H]2O)[C@H](O)[C@@H](O)[C@H]1Cl = N
• CC(C)(C)NC(N)=O = N
• O=C(Cl)c1cccc(C(=O)Cl)c1 = N

IN: // param item: Cc1ccc(C(=O)O)o1 ; yields the recorded call
OUT: N

IN: // param item: CN(C)CCOCCN(C)C ; yields the recorded call
OUT: N

IN: // param item: CCCCNC(=O)NS(=O)(=O)c1ccc(N)cc1 ; yields the recorded call
OUT: N
